molecular target: human 4-HPPD (Homo sapiens); experiment: Residence time evaluation by optimized jump dilution method in recombinant E. coli expressing human 4-HPPD
Sequence (P32754 whole entry): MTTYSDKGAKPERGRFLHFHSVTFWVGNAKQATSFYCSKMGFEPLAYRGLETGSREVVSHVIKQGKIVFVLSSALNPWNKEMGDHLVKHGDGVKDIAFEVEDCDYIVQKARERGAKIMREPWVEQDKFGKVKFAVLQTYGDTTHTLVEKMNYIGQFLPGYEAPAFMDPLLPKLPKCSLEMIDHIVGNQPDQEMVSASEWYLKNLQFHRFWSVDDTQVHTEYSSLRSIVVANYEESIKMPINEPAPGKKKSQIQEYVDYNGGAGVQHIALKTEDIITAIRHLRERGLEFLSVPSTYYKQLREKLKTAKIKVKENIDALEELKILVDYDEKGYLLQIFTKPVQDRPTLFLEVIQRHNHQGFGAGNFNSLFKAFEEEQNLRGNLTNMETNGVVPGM
VALUE TYPE: residence time
Please make sure the unit comes right after the number.

> print(dat)
                                   compound                  system.name  observed
1  O=C1CCCC(=O)C1C(=O)c1ccc([N+](=O)[O-])cc1Cl [c6]  human 4-HPPD (Homo sapiens)   119 min
2  CC1(C)CC(=O)C(C(=O)c2ccc(C(F)(F)F)cc2[N+](=O)[O-])C(=O)C1 [c5]  human 4-HPPD (Homo sapiens)   352 min
3  CS(=O)(=O)c1ccc(C(=O)C2C(=O)CCCC2=O)c([N+](=O)[O-])c1 [c1, mesotrione]  human 4-HPPD (Homo sapiens)   228 min
4  CS(=O)(=O)c1ccc(C(=O)C2C(=O)CCCC2=O)c(Cl)c1 [c3, Sulcotrione]  human 4-HPPD (Homo sapiens)   120 min

// moving on: another record for residence time
Using the record for CS(=O)(=O)c1ccc(C(=O)C2C(=O)CCCC2=O)c(Cl)c1COCC(F)(F)F [c2, tembotrione] , state its measured residence time.
94 min

====

// each record: one item and its half-life (t 1/2) for human 4-HPPD (Homo sapiens, UniProt P32754)
Answers are plain numbers, in h.

> print(dat)
                        structure.as.smiles                               system.name  readout.units  observed
1  CC1(C)CC(=O)C=C(OC(=O)c2ccc(C(F)(F)F)cc2Cl)C1  human 4-HPPD (Homo sapiens, UniProt P32754)              h    0.3749

Return reported half-life (t 1/2) values for all items listed beneath this line.
1. CC1(C)CC(=O)C(C(=O)c2ccc([N+](=O)[O-])cc2Cl)C(=O)C1
2. CS(=O)(=O)c1ccc(C(=O)C2C(=O)CCCC2=O)c(Cl)c1

1: 1.4964; 2: 1.3911

Retrieve half-life (t 1/2) measured for `CS(=O)(=O)c1ccc(C(=O)C2C(=O)CCCC2=O)c(Cl)c1COCC(F)(F)F` and print it.
1.0852

====

target: human 4-HPPD (Homo sapiens); assay: Inhibition assay (IC50/IC90): ochronotic pigment formation in recombinant E. coli expressing human 4-HPPD
Could you please report measured IC90 for the items listed next?
Answers are plain numbers, in nM.

> print(dat)
                        structure.as.smiles  value.type  observed
1  CS(=O)(=O)c1ccc(C(=O)C2C(=O)CCCC2=O)c([N+](=O)[O-])c1        IC90      2000
2  CS(=O)(=O)c1ccc(C(=O)C2C(=O)CCCC2=O)c(Cl)c1COCC(F)(F)F        IC90       500
3  O=C1CCCC(=O)C1C(=O)c1ccc([N+](=O)[O-])cc1Cl        IC90      8000

Value sought for every listed molecule: IC90.
1. CS(=O)(=O)c1ccc(C(=O)C2C(=O)CCCC2=O)c(Cl)c1
2. CC1(C)CC(=O)C(C(=O)c2ccc(C(F)(F)F)cc2[N+](=O)[O-])C(=O)C1

1. 200
2. 8000

====

target: human 4-HPPD (Homo sapiens); assay: Residence time evaluation by optimized jump dilution method in recombinant E. coli expressing human 4-HPPD
VALUE TYPE: koff (s⁻¹)
One number for each entry, in s⁻¹.

Reference set (4 entries):
> print(dat)
                        structure.as.smiles  observed
1  CS(=O)(=O)c1ccc(C(=O)C2C(=O)CCCC2=O)c(Cl)c1  0.000167
2  CS(=O)(=O)c1ccc(C(=O)C2C(=O)CCCC2=O)c(Cl)c1COCC(F)(F)F  0.000183
3  CC1(C)CC(=O)C(C(=O)c2ccc(C(F)(F)F)cc2[N+](=O)[O-])C(=O)C1     5e-05
4  CS(=O)(=O)c1ccc(C(=O)C2C(=O)CCCC2=O)c([N+](=O)[O-])c1  6.67e-05

Now, please, on to the next molecule.
Name the recorded koff of the molecule listed here: `O=C1CCCC(=O)C1C(=O)c1ccc([N+](=O)[O-])cc1Cl`
0.000133
